# assay-text: excess molar enthalpy (molar enthalpy of mixing); xn = mol fraction of the nth substance listed
# details: 298.15 K; 101 kPa; Liquid; Calvet calorimetry; x1 = 0.25
readout-kind: excess molar enthalpy (kcal/mol)

>>> result_value("FC(F)(F)C(F)(F)C(F)(F)C(F)(F)C(F)(F)C(F)(F)F [perfluorohexane] + CCCCCCC")
0.429
>>> result_value("FC(F)(F)C(F)(F)C(F)(F)C(F)(F)C(F)(F)C(F)(F)F [perfluorohexane] + C1CCCCC1")
0.475
>>> result_value("FC(F)(F)C(F)(F)C(F)(F)C(F)(F)C(F)(F)C(F)(F)F [perfluorohexane] + CCCCCCCC")
0.404
>>> result_value("FC(F)(F)C(F)(F)C(F)(F)C(F)(F)C(F)(F)C(F)(F)C(F)(F)F [hexadecafluoroheptane] + CCCCCC")
0.429
>>> result_value("FC(F)(F)C(F)(F)C(F)(F)C(F)(F)C(F)(F)C(F)(F)F [perfluorohexane] + CCCCCC")
0.416
>>> result_value("FC(F)(F)C(F)(F)C(F)(F)C(F)(F)C(F)(F)C(F)(F)C(F)(F)C(F)(F)F [octadecafluorooctane] + CCCCCC")
0.445
